// log10 of ELISA signal lookup, one value per entry
# testedTarget: sEGFR-MMB (Homo sapiens, UniProt P00533)
# Construct: made in house; host or cells: Human Embryonic Kidney cells (293E)
# protocol: Phage ELISA screening of panning hits
# Format: binding
# recordedConditions: phage clone culture supernatant; background typically <200 units
// units: units (pre-log); metric: ELISA signal; scale: log10

Known log10 of ELISA signal results, listed for orientation:
substance	testedTarget	log10 of ELISA signal
35 (RGCVVFGDNIYCIV; Peptide family identified from the S18 library) [compound 35]	sEGFR-MMB (Homo sapiens, UniProt P00533)	4.34
21 (LPDLICAVDSGTSGA; S15 library, which displays a random linear 15-mer) [compound 21]	sEGFR-MMB (Homo sapiens, UniProt P00533)	3.06
43 (PTCDSATRRVLTICAD; Peptide family identified from the S20 library) [compound 43]	sEGFR-MMB (Homo sapiens, UniProt P00533)	3.73
34 (YDCVSFGAVAYCPQ; Peptide family identified from the S18 library) [compound 34]	sEGFR-MMB (Homo sapiens, UniProt P00533)	3.51
12 (VSGILPILVCHPAAT; S15 library, which displays a random linear 15-mer) [compound 12]	sEGFR-MMB (Homo sapiens, UniProt P00533)	3.04

Next:
Challenge: Query: log10 of ELISA signal; subject: 33 (TDCVRFGETIYCIV; Peptide family identified from the S18 library) [compound 33]
Response given: 4.12

----------
# testedTarget: sEGFR-MMB (Homo sapiens)
# Construct: made in house; host or cells: Human Embryonic Kidney cells (293E)
# protocol: Phage ELISA screening of panning hits
# Type: binding
# recordedConditions: phage clone culture supernatant; background typically <200 units
Bridges are numbered along the chain shown (N, C = ends). Where no end group is shown, it is not given here.
// ELISA signal lookup, one value per entry
Output spec: scalar in units, unitless text.

substance	ELISA signal [units]
38 (YDCMIRADGSLICWC; Peptide family identified from the S19 library) [compound 38]	1286
32 (SDCVLFGSKLFCSA; families were identified from the S18 library) [compound 32]	35327
37 (MICYLVDSGNIICYK; Peptide family identified from the S19 library) [compound 37]	8806
45 (DSCCSFLTDGTVVCSL; Peptide family identified from the S20 library) [compound 45]	9544

Challenge: Query: ELISA signal; subject: 39 (GPCVLIRDYYLLCLE; disulfide 3-13 (inferred)) [compound 39]
Response given: 13951

Challenge: // next record 23 (AGCIAFVDVVYCAR; Peptide family identified from the S18 library) [compound 23]
Response given: 6377

Challenge: // next record 27 (DSCIQFANLLYCAI; Peptide family identified from the S18 library) [compound 27]
Response given: 53162

----------
# testedTarget: sEGFR-MMB (Homo sapiens, UniProt P00533)
# Construct: made in house; host or cells: Human Embryonic Kidney cells (293E)
# protocol: Phage ELISA screening of panning hits
# Assay type: binding
# recordedConditions: phage clone culture supernatant; background typically <200 units
measuredProperty: ELISA signal (units)
Output spec: scalar in units, unitless text.

Challenge: Query: ELISA signal; subject: SGCLDALWQCVY (S16 and S17 hits Phage 174) [P174]
Response given: 34641

Challenge: // next record 26 (KHCILFEKTVYCAK; Peptide family identified from the S18 library) [compound 26]
Response given: 9111

Challenge: // next record 15 (NWFSLPTLLCFPLNP; S15 library, which displays a random linear 15-mer) [compound 15]
Response given: 3669
